Target: T1, UNK ZnF1-6 (called full-length) (human, UniProt Q9C0B0 30-357)
T1 sequence: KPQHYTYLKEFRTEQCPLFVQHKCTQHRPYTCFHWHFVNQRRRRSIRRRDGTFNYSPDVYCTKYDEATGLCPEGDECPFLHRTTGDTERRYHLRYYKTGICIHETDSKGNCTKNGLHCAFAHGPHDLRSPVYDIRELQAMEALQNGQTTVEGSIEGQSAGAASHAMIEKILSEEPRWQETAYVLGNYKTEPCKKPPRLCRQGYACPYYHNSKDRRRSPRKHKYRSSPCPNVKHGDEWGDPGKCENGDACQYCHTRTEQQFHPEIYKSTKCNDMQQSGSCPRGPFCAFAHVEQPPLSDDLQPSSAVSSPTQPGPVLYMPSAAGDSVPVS
Test: nsRBNS (natural sequence RNA bind-n-seq); RBNS binding buffer (assumed for nsRBNS): 25 mM Tris pH 7.5, 150 mM KCl, 3 mM MgCl2, 0.01% Triton X-100, 500 ug/ml BSA, 20 U/ml SUPERase-In, 4 C; UNK is unkempt and MSI1 is Musashi-1; names of the RNAs are library labels; protein concentration not given here; high values mean tight binding
Whole data set: some 5,800 sequences, median “enrichment r” near 0.68, cut for the highest 2% near 11. Not all results are given here.
Result type: binding signal (enrichment R)

{"columns": ["Binder", "Result type", "Meas value"],
 "data": [
  ["chr3:185917260:185917361:-|3pUTR|ENSG00000136527|msi1|FALSE|unique (ssRNA) RNA: GGGAGUUCUACAGUCCGACGAUCUGGCAAAAAGCAACAAUAAACAGUUUGAUUUUUACUUUUCUUUCUAACAUAUCAAUGCUUAGCAGAACUAUUCAGAUUGUCAGUAGUAAAUUUAAAGACAAAUGCCCGUUUUCCUCCAGUCAACAGAGGAUUGAGCAUCA", "binding signal", 0.751],
  ["chr14:63372511:63372612:-|3pUTR|ENSG00000154001|unk|total|mutant (ssRNA) RNA: GGGAGUUCUACAGUCCGACGAUCUGGGGAUGAGGGUGGGAUGGGAAAGGGAUGUAUGGAUGUUAUUGGCAUUUUUAAGUGUUCCGAGUUUUUUGGGGUUUGGGGUGGUUUUUUUUCCUUGUUUUCCUUUUUUCCUUUUAAUUGCAACAGAGGAUUGAGCAUCA", "binding signal", 1.7],
  ["chr7:16784014:16784129:+|3pUTR|ENSG00000106537|msi1_unk|total|mutant (ssRNA) RNA: GGGAGUUCUACAGUCCGACGAUCGAUAAUUUACUUGCCGUCUUUUAUGAUUACACCAAUGUAUUCCCGAAACCGUUAUGUCUCCGGAAAUUGUGGUUUAAUUUUUGACUUUUACAGGUAAGUGCAAAGGAGAAGUGGUUUCAUCAACAGAGGAUUGAGCAUCA", "binding signal", 0.435],
  ["ENSG00000198589:be:win_7451|CDS|ENSG00000198589|bound_else_gene|NA|bound_elsewhere_windowed (ssRNA) RNA: GGGAGUUCUACAGUCCGACGAUCUGAGUCCAUUGAUGUUCACAGACAAAGCCCAGCAGGAUGUUAUCAUGGUCCUCAAGUUUCCCUCCAACUCCCCUGUUACUCACGUGGCAGCCAACACCCAGCCUGGUUUGGCAACUCCCGCAACAGAGGAUUGAGCAUCA", "binding signal", 0.743],
  ["chr16:18841627:18841728:-|CDS|ENSG00000157106|msi1|FALSE|bound_elsewhere (ssRNA) RNA: GGGAGUUCUACAGUCCGACGAUCUACAAUUAAUCGCCAAGAAACACCCCGGUUCCAUGCUCGACACUAUUCUGUAACACCACUAGGAACAAGAUCAGGACUAAUCCAGUGGGUAGAUGGAGCCACACCCUUAUUUGGUCUUUACAACAGAGGAUUGAGCAUCA", "binding signal", 0.869],
  ["ENSG00000130720:stop:overlap|stop_codon|ENSG00000130720|stop_codon|NA|stop_codon (ssRNA) RNA: GGGAGUUCUACAGUCCGACGAUCGCUGGCAGUACUCACUCAAGUUCUCUGAGAUGAAGAUCCGGCCGGUCCGGGAGGACCGCUAGACUGGUGCACCUUGUCCUUGGCCCUGCUGGUCCCUGUCGCCCCAUCCCCGACCCCACCCAACAGAGGAUUGAGCAUCA", "binding signal", 1.34],
  ["chr10:128098466:128098636:-|3pUTR|ENSG00000148773|msi1|total|mutant (ssRNA) RNA: GGGAGUUCUACAGUCCGACGAUCUCCUUUCCUUUCUGAAAAUAAAGUUUUGUGCUUUGGAGAAUGACUCGUGAGCACAUCUUCCGGGACCAAGAGUGACUUUCUGUAAGGAGUGACUCGUGGCUUGCCUUGGUCUCUUGGGAACAACAGAGGAUUGAGCAUCA", "binding signal", 0.483]
]}

Origin of measurements: paper PMC12136788
